Just for reference, patent US8937064B2 is where these values come from.

tested_system: JAK-2 enzyme (Homo sapiens, UniProt O60674)
Sequence (O60674 whole entry): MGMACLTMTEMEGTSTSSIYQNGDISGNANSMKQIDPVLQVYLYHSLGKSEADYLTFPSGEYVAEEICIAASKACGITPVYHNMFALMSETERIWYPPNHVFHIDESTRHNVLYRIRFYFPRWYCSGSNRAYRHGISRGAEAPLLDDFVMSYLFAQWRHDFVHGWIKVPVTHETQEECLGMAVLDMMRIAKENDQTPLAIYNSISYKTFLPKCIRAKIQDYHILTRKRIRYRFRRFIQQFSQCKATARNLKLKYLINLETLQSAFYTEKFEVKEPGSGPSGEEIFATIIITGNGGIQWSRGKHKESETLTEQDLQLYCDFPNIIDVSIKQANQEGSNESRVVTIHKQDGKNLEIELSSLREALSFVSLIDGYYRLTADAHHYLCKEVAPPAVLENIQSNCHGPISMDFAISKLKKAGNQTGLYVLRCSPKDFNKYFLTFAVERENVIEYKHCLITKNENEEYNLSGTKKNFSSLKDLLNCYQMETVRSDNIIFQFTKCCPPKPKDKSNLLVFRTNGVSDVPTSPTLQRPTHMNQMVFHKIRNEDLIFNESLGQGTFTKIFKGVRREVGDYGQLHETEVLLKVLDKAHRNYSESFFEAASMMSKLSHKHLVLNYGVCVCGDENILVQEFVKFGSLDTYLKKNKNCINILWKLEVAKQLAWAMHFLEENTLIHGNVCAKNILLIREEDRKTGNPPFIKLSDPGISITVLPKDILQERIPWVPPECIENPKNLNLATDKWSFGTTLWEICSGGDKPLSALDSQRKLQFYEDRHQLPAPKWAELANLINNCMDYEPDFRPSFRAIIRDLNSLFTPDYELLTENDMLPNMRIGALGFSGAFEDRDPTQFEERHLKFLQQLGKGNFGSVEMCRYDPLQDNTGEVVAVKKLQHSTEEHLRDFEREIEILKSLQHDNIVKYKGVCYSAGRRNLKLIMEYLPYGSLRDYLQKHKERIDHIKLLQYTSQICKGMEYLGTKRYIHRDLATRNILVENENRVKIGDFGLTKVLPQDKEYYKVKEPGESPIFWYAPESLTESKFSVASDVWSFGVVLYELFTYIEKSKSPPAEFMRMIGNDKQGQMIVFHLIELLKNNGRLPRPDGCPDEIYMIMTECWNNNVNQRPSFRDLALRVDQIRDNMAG
pKi: −log10 of the molar value.
quantity_measured: pKi

Solved entries (count: 3):
[[record]]
compound = "C[C@H](Nc1cc(-c2cnn3cccnc23)ncn1)c1ccc(F)cc1F"
tested_system = "JAK-2 enzyme (Homo sapiens, UniProt O60674)"
recorded_value = "> 8.00"

[[record]]
compound = "C[C@H](Nc1cc(-c2cnn3cccnc23)nc(OCC2CCCC2)n1)c1ccc(F)cc1F"
tested_system = "JAK-2 enzyme (Homo sapiens, UniProt O60674)"
recorded_value = "7.00 to 8.00"

[[record]]
compound = "C[C@H](Nc1cc(-c2cnn3cccnc23)ncn1)c1ccc(F)c(F)c1"
tested_system = "JAK-2 enzyme (Homo sapiens, UniProt O60674)"
recorded_value = "> 8.00"


# C[C@H](Nc1cc(-c2c(N)nn3cccnc23)nc(OCC2CCOC2)n1)c1ccc(F)cc1F (stereo partly shown) with JAK-2 enzyme (Homo sapiens, UniProt O60674): pKi is > 8.00

Item: C[C@H](Nc1cc(-c2cnn3cccnc23)nc(OCCN(C)C)n1)c1ccc(F)cc1F | System: JAK-2 enzyme (Homo sapiens, UniProt O60674) | pKi: > 8.00

Form field, pKi with JAK-2 enzyme (Homo sapiens, UniProt O60674), item C[C@H](Nc1cc(-c2cnn3cccnc23)nc(OCCC2CCCCN2)n1)c1ccc(F)cc1F (stereo partly shown) : > 8.00

Form field pKi for item CCC[C@@H](Nc1cc(-c2cnn3cccnc23)ncn1)c1ccc(F)cc1F on JAK-2 enzyme (Homo sapiens, UniProt O60674): 7.00 to 8.00

Bench note, JAK-2 enzyme (Homo sapiens, UniProt O60674): entry CC(C#N)Oc1nc(N[C@@H](C)c2ccc(F)cc2F)cc(-c2cnn3cccnc23)n1 (stereo partly shown) , its pKi = > 8.00

// assay JAK-2 enzyme (Homo sapiens, UniProt O60674), entry CC/C=C\COc1nc(N[C@@H](C)c2ccc(F)cc2)cc(-c2c(N)nn3cccnc23)n1 , pKi value = 7.00 to 8.00

###

Measured Ki (JAK-2 enzyme (Homo sapiens, UniProt O60674))

[[record]]
compound = "COCCOc1nc(N[C@@H](C)c2ccc(F)cc2)cc(-c2c(N)nn3cccnc23)n1 [Compound 108]"
recorded_value = "< 10 nM"


Let us examine a further case.
// Ki lookup, compound = C=C(C)COc1nc(N[C@@H](C)c2ccc(F)cc2)cc(-c2c(N)nn3cccnc23)n1 [Compound 175] , result: < 10 nM

###

tested_system: UniProt:P52333
Sequence (P52333 1-1124): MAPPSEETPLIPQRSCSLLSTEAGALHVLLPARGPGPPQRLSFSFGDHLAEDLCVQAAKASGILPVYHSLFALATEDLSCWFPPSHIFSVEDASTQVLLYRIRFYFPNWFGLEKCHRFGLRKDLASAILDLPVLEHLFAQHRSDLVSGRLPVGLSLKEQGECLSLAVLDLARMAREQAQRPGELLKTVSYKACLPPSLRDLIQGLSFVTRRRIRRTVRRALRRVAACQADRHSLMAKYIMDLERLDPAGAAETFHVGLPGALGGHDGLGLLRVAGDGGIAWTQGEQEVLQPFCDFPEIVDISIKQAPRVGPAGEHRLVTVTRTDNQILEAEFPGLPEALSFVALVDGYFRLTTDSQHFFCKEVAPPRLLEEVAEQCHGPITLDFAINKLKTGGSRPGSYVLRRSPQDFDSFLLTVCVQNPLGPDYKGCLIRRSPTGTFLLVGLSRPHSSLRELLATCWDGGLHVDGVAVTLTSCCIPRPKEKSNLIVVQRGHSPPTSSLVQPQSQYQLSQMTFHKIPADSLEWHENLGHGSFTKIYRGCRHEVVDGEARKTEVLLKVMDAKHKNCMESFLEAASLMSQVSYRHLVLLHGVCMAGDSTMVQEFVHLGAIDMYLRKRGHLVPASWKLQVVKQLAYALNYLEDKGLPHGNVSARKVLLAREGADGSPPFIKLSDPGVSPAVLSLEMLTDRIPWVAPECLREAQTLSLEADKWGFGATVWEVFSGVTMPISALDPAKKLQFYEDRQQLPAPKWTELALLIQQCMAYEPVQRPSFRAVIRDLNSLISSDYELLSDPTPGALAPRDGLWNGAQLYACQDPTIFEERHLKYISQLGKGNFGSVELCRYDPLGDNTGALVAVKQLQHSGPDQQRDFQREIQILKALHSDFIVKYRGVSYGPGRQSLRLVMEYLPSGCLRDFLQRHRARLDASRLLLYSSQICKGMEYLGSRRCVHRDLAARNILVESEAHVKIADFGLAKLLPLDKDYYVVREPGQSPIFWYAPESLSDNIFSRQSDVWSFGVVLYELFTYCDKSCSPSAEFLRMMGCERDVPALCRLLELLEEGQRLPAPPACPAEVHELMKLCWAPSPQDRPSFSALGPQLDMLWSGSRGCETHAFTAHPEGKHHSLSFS
Measured Ki, listed per entry for reference.

Example results:
[[record]]
compound = "CCC(Oc1cc(-c2c(N)nn3cccnc23)ncn1)c1ccccc1 (centres unmarked)"
recorded_value = "10 to 100 nM"

[[record]]
compound = "CCC#CC(C)Oc1nc(N[C@@H](C)c2ccc(F)cc2)cc(-c2c(N)nn3cccnc23)n1 (some centres unmarked)"
recorded_value = "500 to 5000 nM"

[[record]]
compound = "Nc1nn2cccnc2c1-c1cc(OC(c2ccccc2)C2CC2)ncn1 (centres unmarked)"
recorded_value = "> 5000 nM"

[[record]]
compound = "COCC(=O)Nc1nc(N[C@@H](C)c2ccc(F)cc2F)cc(-c2cnn3cccnc23)n1"
recorded_value = "10 to 100 nM"

[[record]]
compound = "C[C@H](Nc1cc(-c2cnn3cccnc23)nc(OCCOCCN2CCNCC2)n1)c1ccc(F)cc1F"
recorded_value = "100 to 500 nM"

[[record]]
compound = "C[C@H](Nc1cc(-c2cnn3cccnc23)nc(OCC(C)(C)N(C)C)n1)c1ccc(F)cc1F"
recorded_value = "100 to 500 nM"


Measured Ki of C[C@@H](Oc1cc(-c2c(N)nn3cccnc23)ncn1)c1ccccc1 : 100 to 500 nM

Entry C[C@H](Nc1cc(-c2cnn3cccnc23)nc(OCCC2CCCCN2)n1)c1ccc(F)cc1F (some centres unmarked) — recorded Ki = 10 to 100 nM
